- Tested on: NCI-H226 lung
- assay: NCI-60 one-dose screen, 48 h (100 = growth as untreated, 0 = no growth, -100 = all killed)
- experimental-conditions: 10 µM unless noted
Compounds without any hit were thinned out: in the full panel of roughly 83,000, 20% have a hit.
value-kind: growth (%)

{"columns": ["molecule", "target-entity", "value-kind", "test-value"],
 "data": [
  ["C(=N\\Nc1ccc2ccccc2n1)/c1ccccn1", "NCI-H226 lung", "growth", 10.9],
  ["COc1cc([C@@H]2c3cc4c(cc3[C@H](OC3OC5COC(c6ccccc6)OC5C(O)C3O)[C@H]3COC(=O)[C@H]23)OCO4)cc(OC)c1OC (stereo not given in full)", "NCI-H226 lung", "growth", 75.9],
  ["CC(C)(C)c1ccc(CCO)cc1", "NCI-H226 lung", "growth", 91.8],
  ["Cc1ccccc1N=C(N)Nc1ccccc1C (tested in a mixture with another compound)", "NCI-H226 lung", "growth", 97.1],
  ["COc1cc2c(c(OC)c1OC)-c1ccc(NCc3ccccc3)c(=O)cc1[C@@H](NC(C)=O)CC2", "NCI-H226 lung", "growth", -12.4]
]}

---

- System: RXF 393 renal
- assay: NCI-60 one-dose screen, 48 h
- experimental-conditions: 10 µM unless noted
About 83,000 compounds went through this panel and 20% of them were active in at least one assay; those are over-represented in the sample as a whole. The source made the active and inactive calls. How the source made its calls: active means growth percent below 10; inactive means the rest.
Outcome codes: active, inactive

{"columns": ["compound", "qualitative-label"],
 "data": [
  ["CN(C)CCN(C)CC(C)(C)C(=O)/C=C/c1ccc(Cl)c(Cl)c1", "active"],
  ["CCC1C[N+]2=C(c3cc(OC)c(OC)cc3CC2)c2c1cc1n2CCc2cc(OC)c(OC)cc2-1 (stereo unspecified)", "inactive"],
  ["CCCCCCCCCCCCCCCCCC1=NCCCN1CCO", "inactive"],
  ["CCOc1ccc(Nc2nc3c(s2)C(=O)c2ccccc2C3=O)cc1", "inactive"],
  ["CC(O)C(O)C(O)C(O)C(O)C(=O)NNc1ccccc1 (stereo unspecified)", "inactive"],
  ["O=C(Nc1cccc(C(F)(F)F)c1)Oc1ccc(Cl)c2cccnc12", "inactive"]
]}

---

- System: SK-MEL-5 melanoma
- assay: NCI-60 one-dose screen, 48 h (100 = growth as untreated, 0 = no growth, -100 = all killed)
- experimental-conditions: 10 µM unless noted
About 83,000 compounds went through this panel and 20% of them were active in at least one assay; those are over-represented in the sample as a whole. Where a SMILES comes first, the peptide text is derived from it. [ ]: non-standard residue; d: D form. ξ: configuration not given here. ξD = NC(CC(=O)O)C(=O)O
Parameter growth: see the listing below.

{"columns": ["molecule", "target-entity", "growth / %"],
 "data": [
  ["CCCCCCCCCCCC(=O)OC(C)C(=O)NCCCC (stereo unspecified)", "SK-MEL-5 melanoma", 102],
  ["CCN1/C(=C/C(C)=C/c2sc3ccc4ccccc4c3[n+]2CC)Sc2ccc3ccccc3c21", "SK-MEL-5 melanoma", -97.6],
  ["O=[N+]([O-])c1ccc(N2CCN(Cc3ccccc3)CC2)c2c1no[n+]2[O-]", "SK-MEL-5 melanoma", 38.1],
  ["O=C1C=CC(=O)N1c1cc(Cl)c(Cl)cc1Cl", "SK-MEL-5 melanoma", 111],
  ["CCCCCCCCCCCCSC(=N)N", "SK-MEL-5 melanoma", 38.5],
  ["Nc1nc(N)c2cc(Sc3cccc(C(F)(F)F)c3)ccc2n1", "SK-MEL-5 melanoma", 21.4],
  ["NC1=C(Br)C(=O)c2ncccc2C1=O", "SK-MEL-5 melanoma", -98.3],
  ["COc1ccc(/C=C2/C(=O)ON=C2C)cc1", "SK-MEL-5 melanoma", 103],
  ["Clc1ccccc1C(c1ccccc1)(c1ccccc1)n1ccnc1", "SK-MEL-5 melanoma", -87],
  ["CC/C(=C(/CC)c1ccc(O)cc1)c1ccc(O)cc1", "SK-MEL-5 melanoma", 21.4],
  ["N#CC(=C1SCS1)[N+](=O)[O-]", "SK-MEL-5 melanoma", 5.48],
  ["CCN(CC)CC(O)c1cc(-c2ccc(Cl)cc2)nc2cc(Cl)ccc12 (stereo unspecified)", "SK-MEL-5 melanoma", -95.6],
  ["Cc1cc(=O)oc2cc(O)cc(O)c12", "SK-MEL-5 melanoma", 99.5],
  ["CCCCC(C=O)(C=C=C(C)C)CC (stereo unspecified)", "SK-MEL-5 melanoma", 104],
  ["COc1cc(/C=C/c2ccnc3ccccc23)cc(OC)c1OC", "SK-MEL-5 melanoma", 3.09],
  ["c1ccc(C2NCCNC2c2ccccc2)cc1 (stereo unspecified)", "SK-MEL-5 melanoma", 104],
  ["CCCCN(CCCC)CCCCCCCCCCO", "SK-MEL-5 melanoma", 103],
  ["CCCCCCCCCCCC1N=C(N)N=C(N)N1c1cccc(Br)c1 (stereo unspecified)", "SK-MEL-5 melanoma", 19.3],
  ["S=C(SSC(=S)N1CCOCC1)N1CCOCC1", "SK-MEL-5 melanoma", 73.2],
  ["CCCCCCCCCCCC[n+]1ccc(CCCCCCCCC)cc1", "SK-MEL-5 melanoma", -96.8],
  ["Oc1ccc(Cl)cc1Cc1cc(Cl)ccc1O", "SK-MEL-5 melanoma", 9.09],
  ["NCC(=O)NC(CC(=O)O)C(=O)O (stereo unspecified) (H-Gly-[ξD]-OH)", "SK-MEL-5 melanoma", 101],
  ["CCOC(=O)c1c(C)[nH]c2ccc(O)cc12", "SK-MEL-5 melanoma", 101],
  ["Nc1ccc(-c2ccc(N)c(S(=O)(=O)O)c2)cc1S(=O)(=O)O", "SK-MEL-5 melanoma", 111],
  ["COc1cc(OC)c(/C=C/c2c3ccccc3cc[n+]2C)c(OC)c1", "SK-MEL-5 melanoma", -14],
  ["CC(C)Nc1ccc(Nc2ccc(NC(C)C)cc2)cc1", "SK-MEL-5 melanoma", 33.2]
]}
